Answer each item with its documented TGI.
- System: SK-MEL-5 melanoma
- testProtocol: NCI tumour cell line growth inhibition, 48 h
Numbers only, in µM.

- CC1(C)OC[C@@H](/C=C\CCO[Si](c2ccccc2)(c2ccccc2)C(C)(C)C)N1C(=O)c1ccccc1: 12
- Cc1c(C(C)C)cc(OCCO)cc1C(C)C: 38.1
- CN1C(=O)c2cc(Cl)nc3c(NC(=O)c4cccc(Cl)c4)c(Cl)c(NC(=O)c4cccc(Cl)c4)c1c23: 4.36
- c1ccc2c(c1)nc(NCCN1CCNCC1)c1c3ccccc3[nH]c21: 2.61
- COc1ccc(C[C@H]2C[C@@H](O)[C@@H](C)C/C=C/Cc3cccc(O)c3C(=O)O2)cn1: 35.1
- COc1cc[nH]c1/C=C1\C(=O)Nc2ccc(F)c(C#CC3(O)CCOCC3)c21: 1.19

Parameter requested: TGI. Apply to each item below.
1. CCCC/C(=N\N=C(N)N)c1ccc(F)cc1
2. C/C(=C(/c1ccc(O)cc1)c1ccc(OCCN2CCCC2)cc1)c1ccccc1
3. COc1cc(C(c2cc3c(cc2O)OCO3)N2CCCC2)cc(OC)c1OC (stereo not drawn)

1: 4.27; 2: 3.1; 3: 41.5
